From: patent US20220135638A1

Target: T1, full-length human GIPR (GenBank NM_000164) with an N-terminal FLAG tag on HEK-293T cells (human), P48546
T1 chain: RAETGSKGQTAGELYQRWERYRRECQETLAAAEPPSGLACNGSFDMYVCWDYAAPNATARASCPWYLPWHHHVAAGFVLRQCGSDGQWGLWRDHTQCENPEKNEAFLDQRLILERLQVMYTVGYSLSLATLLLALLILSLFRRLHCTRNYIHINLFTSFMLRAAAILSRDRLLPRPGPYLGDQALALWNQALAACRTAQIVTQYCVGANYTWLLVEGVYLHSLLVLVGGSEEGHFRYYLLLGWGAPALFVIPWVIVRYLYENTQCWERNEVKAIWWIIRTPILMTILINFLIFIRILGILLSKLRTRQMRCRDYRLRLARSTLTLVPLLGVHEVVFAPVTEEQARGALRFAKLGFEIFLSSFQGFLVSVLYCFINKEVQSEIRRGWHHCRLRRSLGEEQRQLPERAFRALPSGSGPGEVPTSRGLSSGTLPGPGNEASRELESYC
Test: cell-based or functional assay
Numbered stars: 1 amine (or outer) side, 2 acyl side, 3 side chain; on linkers, the order of the positions; unused ones are H or OH. Square brackets hold non-standard residues; d marks the D form. Primed or numbered codes have the meaning given here. Side chains are listed from the residue outwards. Ends that are not written are not given here. * marks the point of attachment. C20 diacid = O=C(O)CCCCCCCCCCCCCCCCCCC(=O)*; C18 diacid = O=C(O)CCCCCCCCCCCCCCCCC(=O)*; C16 diacid = O=C(O)CCCCCCCCCCCCCCC(=O)*; γGlu = O=C(O)[C@H](CCC(=O)[*:2])N[*:1]; Iva = CC[C@](C)(N)C(=O)O; PEG3′ = not defined here; Aib = CC(C)(N)C(=O)O
Assignment: determine reported GIP EC50(pM) for the given binders.
One number for each entry, in pM.

Previously resolved entries follow.
{"binder": "Y[Aib]EGTFISDYSIALDR[Aib]HQ[Aib]NFVNW[Iva]LAQRPSK([PEG3′-γGlu-C18 diacid])GAPPPS (ends and bridges not checked) [Compound No. 516]", "quantityUnit": "pM", "GIP EC50(pM)": 1.02}
{"binder": "Y[Aib]EGTFISDYSIALDR[Aib]HQ[Aib]NFVNW[Iva]LAQRPSSGAPK([PEG3′-γGlu-C16 diacid])PS (ends and bridges not checked) [Compound No. 527]", "quantityUnit": "pM", "GIP EC50(pM)": 0.37}
{"binder": "Y[Aib]EGTFISDYSIALDR[Aib]HQ[Aib]NFVNW[Iva]LAQRPSSGAPPPK([Gly-Gly-Gly-Gly-Gly-γGlu-C18 diacid]) (ends and bridges not checked) [Compound No. 463]", "quantityUnit": "pM", "GIP EC50(pM)": 0.52}
{"binder": "Y[Aib]EGTFISDYSIALDR[Aib]HQ[Aib]NFVNW[Iva]LAQRPSSGAPPK([PEG3′-γGlu-C20 diacid])S (ends and bridges not checked) [Compound No. 532]", "quantityUnit": "pM", "GIP EC50(pM)": 2.05}
{"binder": "Y[Aib]EGTFISDYSIALDR[Aib]HQ[Aib]NFVNW[Iva]LAQRPSSGAPPPK([PEG3′-PEG3′-γGlu-Ida]) (ends and bridges not checked) [Compound No. 480]", "quantityUnit": "pM", "GIP EC50(pM)": 0.5}
{"binder": "Y[Aib]EGTFISDYSIALDR[Aib]HQ[Aib]NFVNW[Iva]LAQRPSSGAK([PEG3′-PEG3′-γGlu-C16 diacid])PPS (ends and bridges not checked) [Compound No. 500]", "quantityUnit": "pM", "GIP EC50(pM)": 0.59}
{"binder": "Y[Aib]EGTFISDYSIALDR[Aib]HQ[Aib]NFVNW[Iva]LAQRPSSGAPPK([PEG3′-PEG3′-γGlu-Ida])S (ends and bridges not checked) [Compound No. 477]", "quantityUnit": "pM", "GIP EC50(pM)": 0.64}

Now look at this entry.
Lab note: Y[Aib]EGTFISDYSIALDR[Aib]HQ[Aib]NFVNW[Iva]LAQRPSSGAPK([PEG3′-PEG3′-γGlu-C20 diacid])PS (ends and bridges not checked) [Compound No. 505] gave GIP EC50(pM) of 2.11
